Data credit: patent US10688200B2

# targetDesc: PSMA (Homo sapiens, UniProt Q04609)
# Construct: 100 μL of freshly harvested PSMA cells; endogenous in cells; host or cells: 'PSMA cells' in the method
# Sequence (Q04609 whole entry): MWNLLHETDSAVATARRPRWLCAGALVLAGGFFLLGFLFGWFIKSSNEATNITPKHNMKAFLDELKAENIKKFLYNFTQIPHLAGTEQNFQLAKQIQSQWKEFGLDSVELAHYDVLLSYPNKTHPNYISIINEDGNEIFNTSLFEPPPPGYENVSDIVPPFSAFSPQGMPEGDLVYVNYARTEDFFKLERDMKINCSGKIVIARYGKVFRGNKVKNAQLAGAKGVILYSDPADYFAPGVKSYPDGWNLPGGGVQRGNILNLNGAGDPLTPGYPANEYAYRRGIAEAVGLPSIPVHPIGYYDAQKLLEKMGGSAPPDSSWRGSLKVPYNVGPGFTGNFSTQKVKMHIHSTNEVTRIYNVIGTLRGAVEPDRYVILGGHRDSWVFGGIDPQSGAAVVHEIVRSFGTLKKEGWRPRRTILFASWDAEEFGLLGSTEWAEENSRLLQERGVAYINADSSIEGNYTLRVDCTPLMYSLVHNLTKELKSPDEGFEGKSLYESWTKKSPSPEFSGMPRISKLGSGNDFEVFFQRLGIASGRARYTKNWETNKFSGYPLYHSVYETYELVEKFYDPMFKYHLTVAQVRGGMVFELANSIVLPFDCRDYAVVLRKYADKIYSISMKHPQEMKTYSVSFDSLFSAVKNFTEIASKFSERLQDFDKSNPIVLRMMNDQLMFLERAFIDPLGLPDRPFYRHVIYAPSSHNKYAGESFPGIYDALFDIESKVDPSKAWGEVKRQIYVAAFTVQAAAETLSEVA
# assayOverview: In vitro binding signals of 68Ga labeled ligands in LNCaP tumor homogenates
# conditionDescription: Ga-68 radiolabeled ligands, 37° C. 60 min
Kindly supply the reported Total binding (TB) values for the records listed here.
Give bare numbers.

Examples from the recorded data:
>  <compound>
O=C(O)CC[C@H](NC(=O)N[C@@H](CCCCNC(=O)[C@H](Cc1ccccc1)NC(=O)COc1ccc(C[C@H](NC(=O)CNC(=O)CN2CCN(CC(=O)O)CCN(CC(=O)O)CCN(CC(=O)O)CC2)C(=O)O)cc1)C(=O)O)C(=O)O [Compound 5a]

>  <Total binding (TB)>
3.30

$$$$
>  <compound>
O=C(O)CCc1ccc(O)c(CN(CCN(CC(=O)O)Cc2nc(CCC(=O)NCCCCCC(=O)NCCCC[C@H](NC(=O)N[C@@H](CCC(=O)O)C(=O)O)C(=O)O)ccc2O)CC(=O)O)n1 [Compound 2]

>  <Total binding (TB)>
9.2

$$$$
>  <compound>
O=C(O)CCc1ccc(O)c(CN(CCN(CC(=O)O)Cc2cc(CCC(=O)NCC(=O)N[C@@H](Cc3ccc(OCC(=O)N[C@@H](Cc4ccccc4)C(=O)NCCCC[C@H](NC(=O)N[C@@H](CCC(=O)O)C(=O)O)C(=O)O)cc3)C(=O)O)ccc2O)CC(=O)O)c1 [Compound 5b]

>  <Total binding (TB)>
10.73

$$$$
>  <compound>
O=C(O)CC[C@H](NC(=O)CCc1ccc(O)c(CN(CCN(CC(=O)O)Cc2cc(CCC(=O)NCCCCCC(=O)NCCCC[C@H](NC(=O)N[C@@H](CCC(=O)O)C(=O)O)C(=O)O)ccc2O)CC(=O)O)c1)C(=O)O [Compound 1f]

>  <Total binding (TB)>
13.5

$$$$

Next:
Prompt: Entry O=C(O)CCc1ccc(O)c(CN(CCN(CC(=O)O)Cc2cc(CCC(=O)NCCCCCC(=O)NCCCC[C@H](NC(=O)N[C@@H](CCC(=O)O)C(=O)O)C(=O)O)ccc2O)CC(=O)O)n1 [Compound 4a] has what Total binding (TB)?
Completion: 13.4

###

# assayOverview: Biodistribution of radiotracers in normal mice
# Type: in vivo, mouse
# conditionDescription: normal male mice, 60 min
Kindly supply the reported Biodistribution: Lung values for the records listed here.
Answers are plain numbers, in % dose/g.

State recorded Biodistribution: Lung for all listed molecules.
1. O=C(O)CC[C@H](NC(=O)N[C@@H](CCCCNC(=O)CCCCCNC(=O)CCc1ccc2c(c1)C[N+]13CC[N+]45CC(=O)[O][68Ga-3]14([O]C(=O)C3)([O]2)[O]c1ccc(CCC(=O)N[C@@H](CC(=O)O)C(=O)O)cc1C5)C(=O)O)C(=O)O (stereo partly drawn) [[^68Ga]1e]
2. O=C(O)CC[C@H](NC(=O)N[C@@H](CCCCNC(=O)CCCCCNC(=O)CCc1ccc2c(c1)C[N+]13CC[N+]45CC(=O)[O][68Ga-3]14([O]C(=O)C3)([O]2)[O]c1ccc(CCC(=O)NCCNC(=O)CN2CCN(CC(=O)O)CCN(CC(=O)O)CCN(CC(=O)O)CC2)cc1C5)C(=O)O)C(=O)O (stereo partly drawn) [[^68Ga]1g]
3. O=C(O)CC[C@H](NC(=O)CCc1ccc2c(c1)C[N+]13CC[N+]45CC(=O)[O][68Ga-3]41([O]C(=O)C3)([O]c1ccc(CCC(=O)NCCCCCC(=O)NCCCC[C@H](NC(=O)N[C@@H](CCC(=O)O)C(=O)O)C(=O)O)cc1C5)[O]2)C(=O)O (stereo partly drawn) [[^68Ga]1f]
4. O=C(O)CCc1ccc2c(c1)C[N+]13CC[N+]45CC(=O)[O][68Ga-3]14([O]C(=O)C3)([O]2)[O]c1ccc(CCC(=O)NCC(=O)N[C@@H](Cc2ccc(OCC(=O)N[C@@H](Cc3ccccc3)C(=O)NCCCC[C@H](NC(=O)N[C@@H](CCC(=O)O)C(=O)O)C(=O)O)cc2)C(=O)O)cc1C5 (stereo partly drawn) [[^68Ga]5b]
5. O=C(O)CCc1ccc(O)c(CN(CCN(CC(=O)O)Cc2cc(CCC(=O)NCCCCCC(=O)NCCCC[C@H](NC(=O)N[C@@H](CCC(=O)O)C(=O)O)C(=O)O)ccc2O)CC(=O)O)n1 [[^68Ga]4a, metal not drawn]
6. O=C(O)CC[C@H](NC(=O)N[C@@H](CCCCNC(=O)CCCCCNC(=O)CCc1ccc2c(c1)C[N+]13CC[N+]45CC(=O)[O][68Ga-3]14([O]C(=O)C3)([O]2)[O]c1ccc(CCC(=O)NCC(=O)O)cc1C5)C(=O)O)C(=O)O (stereo partly drawn) [[^68Ga]1c]

Completion:
1: 1.14; 2: 1.33; 3: 1.37; 4: 1.28; 5: 1.18; 6: 0.90

###

# assayOverview: Biodistribution of radiotracers in normal mice
# Format: in vivo, mouse
# conditionDescription: normal male mice, 30 min
# Method: Normal CD-1 male mice were injected via the tail vein with 35 μCi of [^68Ga] radiotracers (0.2 nmole of ligand). […] All organs were removed and blood was also collected. Each organ was weighed, and the tissue radioactivity was measured with an automated gamma counter (Wizard, Perkin Elmer). The % ID/g was calculated by comparison with samples of a standard dilution of the initial dose. All measurements were corrected for decay.
observationType: Biodistribution: Lung (% dose/g)
Answers are plain numbers, in % dose/g.

State recorded Biodistribution: Lung for all listed compounds.
1. O=C(O)CCc1ccc2c(c1)C[N+]13CC[N+]45CC(=O)[O][68Ga-3]14([O]C(=O)C3)([O]2)[O]c1ccc(CCC(=O)NCCCCCC(=O)NCCCC[C@H](NC(=O)N[C@@H](CCC(=O)O)C(=O)O)C(=O)O)cc1C5 (stereo partly shown) [[^68Ga]1a, reference compound]
2. O=C(O)CC[C@H](NC(=O)N[C@@H](CCCCNC(=O)CCCCCNC(=O)CCc1ccc2c(n1)C[N+]13CC[N+]45CC(=O)[O][68Ga-3]14([O]C(=O)C3)([O]2)[O]c1ccc(CCC(=O)NCCCCCC(=O)NCCCC[C@H](NC(=O)N[C@@H](CCC(=O)O)C(=O)O)C(=O)O)nc1C5)C(=O)O)C(=O)O (stereo partly shown) [[^68Ga]3]
3. O=C(O)CCc1ccc(O)c(CN(CCN(CC(=O)O)Cc2cc(CCC(=O)NCCCCCC(=O)NCCCC[C@H](NC(=O)N[C@@H](CCC(=O)O)C(=O)O)C(=O)O)ccc2O)CC(=O)O)n1 [[^68Ga]4a, metal not drawn]
4. O=C(O)CC[C@H](NC(=O)N[C@@H](CCCCNC(=O)CCCCCNC(=O)CCc1ccc2c(c1)C[N+]13CC[N+]45CC(=O)[O][68Ga-3]14([O]C(=O)C3)([O]2)[O]c1ccc(CCC(=O)NCCNC(=O)CN2CCN(CC(=O)O)CCN(CC(=O)O)CCN(CC(=O)O)CC2)cc1C5)C(=O)O)C(=O)O (stereo partly shown) [[^68Ga]1g]

Completion:
1.14
1.38
1.55
2.13

###

Kindly supply the reported Specific binding (SB) SB = TB − NSB values for the records listed here.
# targetDesc: PSMA (Homo sapiens, UniProt Q04609)
# Construct: 100 μL of freshly harvested PSMA cells; endogenous in cells; host or cells: 'PSMA cells' in the method
# assayOverview: In vitro binding signals of 68Ga labeled ligands in LNCaP tumor homogenates
# conditionDescription: Ga-68 radiolabeled ligands
Answers are plain numbers.

Examples from the recorded data:
>  <compound>
O=C(O)CC[C@H](NC(=O)N[C@@H](CCCCNC(=O)CCCCCNC(=O)CCc1ccc(O)c(CN(CCN(CC(=O)O)Cc2cc(CCC(=O)N[C@@H](CC(=O)O)C(=O)O)ccc2O)CC(=O)O)c1)C(=O)O)C(=O)O [Compound 1e]

>  <targetDesc>
PSMA (Homo sapiens, UniProt Q04609)

>  <Specific binding (SB) SB = TB − NSB>
13.2

$$$$
>  <compound>
O=C(O)CC[C@H](NC(=O)N[C@@H](CCCCNC(=O)[C@H](Cc1ccccc1)NC(=O)COc1ccc(C[C@H](NC(=O)CNC(=O)CN2CCN(CC(=O)O)CCN(CC(=O)O)CCN(CC(=O)O)CC2)C(=O)O)cc1)C(=O)O)C(=O)O [Compound 5a]

>  <targetDesc>
PSMA (Homo sapiens, UniProt Q04609)

>  <Specific binding (SB) SB = TB − NSB>
2.83

$$$$
>  <compound>
O=C(O)CCc1ccc(O)c(CN(CCN(CC(=O)O)Cc2cc(CCC(=O)NCC(=O)N[C@@H](Cc3ccc(OCC(=O)N[C@@H](Cc4ccccc4)C(=O)NCCCC[C@H](NC(=O)N[C@@H](CCC(=O)O)C(=O)O)C(=O)O)cc3)C(=O)O)ccc2O)CC(=O)O)c1 [Compound 5b]

>  <targetDesc>
PSMA (Homo sapiens, UniProt Q04609)

>  <Specific binding (SB) SB = TB − NSB>
10.54

$$$$

Prompt: Find the measured Specific binding (SB) SB = TB − NSB: item O=C(O)CC[C@H](NC(=O)N[C@@H](CCCCNC(=O)CCCCCNC(=O)CCc1ccc(O)c(CN(CCN(CC(=O)O)Cc2cc(CCC(=O)N[C@H]3C(O)O[C@H](CO)[C@@H](O)[C@@H]3O)ccc2O)CC(=O)O)c1)C(=O)O)C(=O)O (stereo partly shown) [Compound 1b] , target or system PSMA (Homo sapiens, UniProt Q04609).
Completion: 8.8
